Tested on: Rattus norvegicus
Assay: Effect on spontaneous pain in Sprague-Dawley rat CCI model assessed as duration of paw withdrawal at 100 mg/kg, ip after 1.5 hrs
Type: functional
Details: route intraperitoneal
Give Criterion met when the value for Activity is at least 20 s. Give Criterion not met when it is less.

Is Activity for `C/C(=N\NC(=O)NCCCC(=O)O)c1cccc(N)c1` at or above 20 s?
Criterion not met

Is Activity for NCC1(CC(=O)O)CCCCC1 [GABAPENTIN] at or above 20 s?
Criterion not met

Is Activity for NC(=O)N1c2ccccc2C=Cc2ccccc21 [CARBAMAZEPINE] at or above 20 s?
Criterion met

Is Activity for `C/C(=N\NC(=O)NCCCC(=O)O)c1ccc(C)cc1` at or above 20 s?
Criterion not met

Is Activity for `O=C(O)CCCNC(=O)N/N=C/c1ccccc1O` at or above 20 s?
Criterion met

Is Activity for `C/C(=N\NC(=O)NCCCC(=O)O)c1ccccc1` at or above 20 s?
Criterion not met

Is Activity for `O=C(O)CCCNC(=O)N/N=C1\C(=O)Nc2ccccc21` at or above 20 s?
Criterion met

The values you see were collected from ChEMBL document CHEMBL1139875.
